assay.text: Pharmacokinetics of MNTX in rat plasma after oral gavage (LC/MS/MS)
condition.label: male, Sprague-Dawley, in vivo, 250 mg/kg, time to peak plasma concentration (Tmax), rats, 250 mg/kg oral, overall profile
quantity: Tmax (h)
Answers are plain numbers, in h.

Ask | Item C[N+]1(CC2CC2)CCC23c4c5ccc(O)c4OC2C(=O)CCC3(O)C1C5 (stereo not shown) [MNTX, methylnaltrexone bromide] has what recorded Tmax?
Reply | 3

----------
assay.text: Pharmacokinetics of MNTX in rat plasma after oral gavage (LC/MS/MS)
condition.label: male, Sprague-Dawley, in vivo, 250 mg/kg, First peak Tmax, rats, 250 mg/kg oral, first plasma peak
quantity: Tmax (h)
Numbers only, in h.

Ask | Query (compound): C[N+]1(CC2CC2)CCC23c4c5ccc(O)c4OC2C(=O)CCC3(O)C1C5 (stereo not shown) [MNTX, methylnaltrexone bromide] ; field requested: Tmax
Reply | 2
